These measurements were taken from patent US11286268B1.

pIC50 values by entry
Biological target: recombinant eIF4E (Homo sapiens (Human), UniProt P06730)
Sequence (P06730 whole entry): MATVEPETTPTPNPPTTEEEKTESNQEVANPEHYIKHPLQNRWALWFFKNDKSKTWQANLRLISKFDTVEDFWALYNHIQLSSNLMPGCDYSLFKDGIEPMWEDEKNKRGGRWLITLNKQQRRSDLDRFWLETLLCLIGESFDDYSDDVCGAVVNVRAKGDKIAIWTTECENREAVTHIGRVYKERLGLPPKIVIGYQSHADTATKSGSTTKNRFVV
Test: Fluorescence polarization competition assay for eIF4E binding potency
Conditions: fluorescence polarization competition, 75 nM recombinant eIF4E, 20 nM EDA-m7GDP-ATTO-550; IC50 class; read-out: elF4E FP
pIC50: −log10 of the molar value.

Example results:
1) CCc1cc(-c2cc(Cl)ccc2OCCn2c(C)nc3cc(C(F)(F)F)c(-c4cc(F)cnc4C)c(C#N)c3c2=O)c2scc(C(=O)O)c2n1 : > 7.30
2) Cc1c(CCOc2ccc(Cl)cc2-c2ccnc3c(C(=O)O)csc23)c(=O)c2c(C#N)cc(C(F)(F)F)cc2n1C : > 7.30
3) CCN(Cc1ccccc1)S(=O)(=O)c1ccc2nc(C)n(CCOc3ccc(Cl)cc3-c3ccnc4c(C(=O)O)csc34)c(=O)c2c1C#N : > 7.30
4) Cc1cc(-c2cc(Cl)ccc2OCCn2c(C)nc3cnc(N4CC(N(C)C)C4)c(C#N)c3c2=O)c2sc(C)c(C(=O)O)c2n1 : 6.00 to 7.30
5) Cc1nc2cc(C(F)(F)F)c(-c3ccncc3)c(C#N)c2c(=O)n1CCOc1ccc(Cl)cc1-c1cccc(C(=O)O)c1 : > 7.30
6) Cc1cc(-c2cc(Cl)ccc2OCCn2c(C)nc3cc(C(F)(F)F)c[n+]([O-])c3c2=O)c2scc(C(=O)O)c2n1 : > 7.30
7) Cc1cc(-c2cc(Cl)ccc2OCCn2c(C)nc3cc(C(F)(F)F)c(-c4cnccc4C)c(C#N)c3c2=O)c2scc(C(=O)O)c2n1 : > 7.30
8) Cc1nc2cc(C(F)(F)F)cc(S)c2c(=O)n1CCOc1ccc(Cl)cc1-c1ccnc2c(C(=O)O)csc12 : 6.00 to 7.30
9) CCc1cc(-c2cc(Cl)ccc2OCCn2c(C)nc3cnc(-c4ccccc4)c(C#N)c3c2=O)c2scc(C(=O)O)c2n1 : > 7.30

We next turn to a different compound, shown below.
Exam item: Would you mind telling me what pIC50 value was observed for `CC#Cc1c(C(=O)O)cccc1-c1cc(Cl)ccc1OCCn1cnc2cnc(C#N)cc2c1=O` ?
Marked response: 6.00 to 7.30
